# Target: UniProtKB P53341
Metric: Ki (µM)

CC1=CCC[C@@H]2[C@@](C)(Cc3cc(O)ccc3O)[C@H](C)CC[C@@]12C [(-)-avarol] | 9.5
CC1=CCC[C@H]2[C@](C)(Cc3cc(O)ccc3O)[C@@H](C)CC[C@]12C [(+)-avarol, (+)-Avarol] | 25

---

# Target: α-D-mannosidase (jack bean) (Canavalia ensiformis, UniProt C0HJB3)
# Sequence (C0HJB3 1-562 limits assumed): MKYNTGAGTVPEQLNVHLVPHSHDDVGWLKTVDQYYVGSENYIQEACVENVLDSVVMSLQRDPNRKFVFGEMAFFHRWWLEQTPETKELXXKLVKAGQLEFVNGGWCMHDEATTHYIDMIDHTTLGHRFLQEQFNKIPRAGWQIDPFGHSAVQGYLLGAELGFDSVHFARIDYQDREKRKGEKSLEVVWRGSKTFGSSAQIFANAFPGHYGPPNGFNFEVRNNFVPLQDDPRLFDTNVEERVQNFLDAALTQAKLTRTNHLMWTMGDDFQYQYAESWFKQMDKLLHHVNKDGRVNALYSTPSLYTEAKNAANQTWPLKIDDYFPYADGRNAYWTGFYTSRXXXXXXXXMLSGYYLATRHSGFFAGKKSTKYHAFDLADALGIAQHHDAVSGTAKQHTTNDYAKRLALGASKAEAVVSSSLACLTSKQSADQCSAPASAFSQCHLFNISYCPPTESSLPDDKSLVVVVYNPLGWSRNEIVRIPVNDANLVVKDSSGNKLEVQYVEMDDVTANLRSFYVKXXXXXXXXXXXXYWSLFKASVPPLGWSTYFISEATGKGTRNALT
# Sequence (C0HJB3 563-981 limits assumed): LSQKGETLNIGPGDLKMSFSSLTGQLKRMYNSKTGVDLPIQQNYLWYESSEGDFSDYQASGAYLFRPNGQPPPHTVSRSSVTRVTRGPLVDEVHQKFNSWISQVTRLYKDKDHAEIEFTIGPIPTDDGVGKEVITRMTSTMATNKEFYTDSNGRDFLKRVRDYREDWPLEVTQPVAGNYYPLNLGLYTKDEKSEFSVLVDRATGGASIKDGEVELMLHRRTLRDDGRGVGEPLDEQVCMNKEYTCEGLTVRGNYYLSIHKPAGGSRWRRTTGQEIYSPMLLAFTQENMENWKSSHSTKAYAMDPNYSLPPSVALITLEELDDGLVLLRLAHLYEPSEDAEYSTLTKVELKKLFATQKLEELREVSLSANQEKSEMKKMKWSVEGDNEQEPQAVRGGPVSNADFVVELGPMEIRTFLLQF
pIC50: −log10 of the molar value.
Metric: pIC50

CC1=CCC[C@H]2[C@](C)(Cc3cc(O)ccc3O)[C@@H](C)CC[C@]12C [(+)-avarol, (+)-Avarol] | < 4.40
CC1=CCC[C@@H]2[C@@](C)(Cc3cc(O)ccc3O)[C@H](C)CC[C@@]12C [(-)-avarol] | ~5.00

---

# Target: UniProtKB P53341
Metric: IC50 (µM)

CC1=CCC[C@@H]2[C@@](C)(Cc3cc(O)ccc3O)[C@H](C)CC[C@@]12C [(-)-avarol] | 7.6

# credit: patent US6075057A
